# Tested on: S. aureus Newman;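 note: first quartile when negative (synergy) and third quartile when positive (antagonism)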
# Experimental details: Bliss interaction score (quartile over a dose matrix) (fitness difference); higher = more antagonism (negative = synergy)
Examples of compounds with documented Bliss interaction score follow.
Write the value as a bare number.

{"columns": ["Compound", "Study system", "Number"],
 "data": [
  ["CO/N=C(\\C(=O)N[C@@H]1C(=O)N2C(C(=O)O)=C(COC(C)=O)CS[C@H]12)c1csc(N)n1 [Cefotaxime] + CN[C@@H]1[C@H](O)[C@H](NC)[C@H]2O[C@@]3(O)C(=O)C[C@@H](C)O[C@H]3O[C@@H]2[C@H]1O [Spectinomycin]", "S. aureus Newman", -0.0972]
]}

Now look at this entry.
Noted for CO/N=C(\C(=O)N[C@@H]1C(=O)N2C(C(=O)O)=C(COC(C)=O)CS[C@H]12)c1csc(N)n1 [Cefotaxime] + C[C@H]1c2cccc(O)c2C(=O)C2=C(O)[C@]3(O)C(=O)C(C(N)=O)=C(O)[C@@H](N(C)C)[C@@H]3[C@@H](O)[C@@H]21 [Doxycycline] : its Bliss interaction score reads 0.0304
